# assaySystem: T1, Human CD3eg linker (human)
# T1 construct: Single chain: epsilon and gamma subunits of human CD3 joined by a 29-mer linker, Flag-tag at the C-terminus; also called recombinant human CD3
# T1 chain: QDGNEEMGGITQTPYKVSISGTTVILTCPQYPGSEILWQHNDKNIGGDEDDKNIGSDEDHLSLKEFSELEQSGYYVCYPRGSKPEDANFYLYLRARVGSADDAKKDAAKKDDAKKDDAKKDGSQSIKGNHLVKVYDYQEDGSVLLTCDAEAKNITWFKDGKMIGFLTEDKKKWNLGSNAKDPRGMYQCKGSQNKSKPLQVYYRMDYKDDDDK
# experimentNotes: Biacore SPR, vs template H183/L072
quantityMeasured: fold change of affinity (fold)
Numeric only. Scale: fold

Can you look up the measured fold change of affinity of H183/L072 VH H35A (antibody, name in Kabat numbering, V domains shown) VH: QVQLVESGGGLVQPGRSLRLSCAASGFTFSNAWMAWVRQAPGKGLEWVAQIKDKGNAYAAYYAPSVKGRFTISRDDSKNSIYLQMNSLKTEDTAVYYCHYVHYASASTVLPAFGVDAWGQGTTVTVSS VL: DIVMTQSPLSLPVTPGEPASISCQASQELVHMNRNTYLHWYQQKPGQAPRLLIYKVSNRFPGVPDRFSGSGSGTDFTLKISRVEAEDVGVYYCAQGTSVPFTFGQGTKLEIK for me?
0

I would be grateful if you could share the reported fold change of affinity for H183/L072 VH W33P (antibody, name in Kabat numbering, V domains shown) VH: QVQLVESGGGLVQPGRSLRLSCAASGFTFSNAPMHWVRQAPGKGLEWVAQIKDKGNAYAAYYAPSVKGRFTISRDDSKNSIYLQMNSLKTEDTAVYYCHYVHYASASTVLPAFGVDAWGQGTTVTVSS VL: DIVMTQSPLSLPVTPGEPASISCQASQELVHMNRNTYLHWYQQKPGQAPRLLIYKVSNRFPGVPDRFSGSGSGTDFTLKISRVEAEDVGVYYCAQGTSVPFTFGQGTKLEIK .
0

Given the entry H183/L072 VH F29S (antibody, name in Kabat numbering, V domains shown) VH: QVQLVESGGGLVQPGRSLRLSCAASGFTSSNAWMHWVRQAPGKGLEWVAQIKDKGNAYAAYYAPSVKGRFTISRDDSKNSIYLQMNSLKTEDTAVYYCHYVHYASASTVLPAFGVDAWGQGTTVTVSS VL: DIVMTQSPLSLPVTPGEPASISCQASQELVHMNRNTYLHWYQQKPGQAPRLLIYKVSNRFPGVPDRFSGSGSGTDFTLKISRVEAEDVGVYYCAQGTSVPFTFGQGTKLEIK , report its measured fold change of affinity.
0.1
